Collected from the literature: pIC50 of various compounds toward Prostaglandin G/H synthase 2 (Homo sapiens).
measuredOn: Prostaglandin G/H synthase 2 (Homo sapiens)
Sequence (P35354 whole entry): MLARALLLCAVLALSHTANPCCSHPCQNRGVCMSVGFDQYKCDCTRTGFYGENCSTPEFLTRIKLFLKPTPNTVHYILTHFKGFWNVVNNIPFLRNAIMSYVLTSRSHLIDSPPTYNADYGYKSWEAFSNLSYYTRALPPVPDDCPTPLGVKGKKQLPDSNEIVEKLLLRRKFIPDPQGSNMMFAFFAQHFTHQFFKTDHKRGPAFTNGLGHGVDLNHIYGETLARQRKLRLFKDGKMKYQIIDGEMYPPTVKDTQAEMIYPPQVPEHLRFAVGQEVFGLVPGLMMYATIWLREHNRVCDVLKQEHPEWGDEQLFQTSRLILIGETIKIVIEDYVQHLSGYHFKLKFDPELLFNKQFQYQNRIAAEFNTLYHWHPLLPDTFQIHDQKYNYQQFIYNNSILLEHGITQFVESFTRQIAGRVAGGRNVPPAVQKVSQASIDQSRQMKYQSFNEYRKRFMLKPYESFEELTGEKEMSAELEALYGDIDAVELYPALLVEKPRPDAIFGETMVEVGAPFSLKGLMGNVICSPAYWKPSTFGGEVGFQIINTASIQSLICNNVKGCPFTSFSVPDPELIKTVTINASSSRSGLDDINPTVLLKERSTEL
pIC50: −log10 of the molar value.
Where pIC50 equals or exceeds 5, the correct label is T; where it does not, the label is F.

Would you please look over these solved cases?
| compound | labelValue |
| --- | --- |
| COc1ccc2c(c1)c(CCNC(C)=O)cn2C(=O)c1ccc(Cl)cc1 | F |
| O=C(O)C1=Cc2c(Cl)ccc(Cl)c2OC1C(F)(F)F (stereo not given) | T |
| COC(=O)[C@@H](c1ccccc1)[C@H](C1=C(O)/C(=C/c2ccccc2)OC1=O)c1ccccc1 | F |

Ask: Determine whether this compound has pIC50 no lower than 5: O=C(O)C1=Cc2cc(Cl)cc(-c3ccc(CO)cc3)c2OC1C(F)(F)F (stereo not given)
Result: T

Ask: # repeat for Cc1ccc(-n2nc(COC(=O)COc3cc(O)c4c(=O)cc(-c5ccccc5)oc4c3)cc2-c2ccc(Cl)c(Cl)c2)cc1
Result: T

Ask: Here is the next compound: Nc1cccc(NC(=O)c2ccccc2C(F)(F)F)c1
Result: F

---

measuredOn: Prostaglandin G/H synthase 2 (Homo sapiens)
Sequence (P35354 whole entry): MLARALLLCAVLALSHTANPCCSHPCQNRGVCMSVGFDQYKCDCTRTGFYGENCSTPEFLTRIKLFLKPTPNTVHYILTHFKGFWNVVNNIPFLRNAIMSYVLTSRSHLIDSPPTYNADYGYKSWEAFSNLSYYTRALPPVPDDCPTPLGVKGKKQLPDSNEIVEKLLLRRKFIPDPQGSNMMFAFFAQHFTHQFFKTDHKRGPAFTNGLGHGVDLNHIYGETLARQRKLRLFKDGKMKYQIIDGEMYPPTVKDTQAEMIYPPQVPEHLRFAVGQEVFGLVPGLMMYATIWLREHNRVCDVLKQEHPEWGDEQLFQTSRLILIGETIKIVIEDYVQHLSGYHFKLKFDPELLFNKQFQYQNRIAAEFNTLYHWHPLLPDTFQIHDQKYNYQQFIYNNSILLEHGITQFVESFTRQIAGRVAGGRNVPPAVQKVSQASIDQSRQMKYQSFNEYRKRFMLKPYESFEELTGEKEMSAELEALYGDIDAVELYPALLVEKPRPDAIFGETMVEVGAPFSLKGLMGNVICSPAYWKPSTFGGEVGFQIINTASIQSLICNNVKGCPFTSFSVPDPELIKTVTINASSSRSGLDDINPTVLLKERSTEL
Collected IC50 for Prostaglandin G/H synthase 2 (Homo sapiens) across several studies; compounds listed below.
Report only the number, with the unit µM understood.

Use the examples below as a reference point.
| compound | measuredOn | readoutNumber |
| --- | --- | --- |
| CS(=O)(=O)Nc1ccc(-c2cc(Cl)cc3c2OC(C(F)(F)F)C(C(=O)O)=C3)cc1 (stereo not given) | Prostaglandin G/H synthase 2 (Homo sapiens) | 40.1 |
| COc1ccc(-c2nc3c(/N=N/c4ccc(O)cc4)c(N)nn3c(N)c2C#N)cc1 | Prostaglandin G/H synthase 2 (Homo sapiens) | 21.1 |
| CS(=O)(=O)Nc1ccncc1Nc1ccccc1 | Prostaglandin G/H synthase 2 (Homo sapiens) | 2.69 |

Ask: Requested field: IC50. Item: O=C(O)C1=Cc2cc(Cl)c(Cl)cc2OC1C(F)(F)F (stereo not given)
Result: 0.062
